Target: NF-kB p65 (RelA) (UniProt Q04206 Q04206:1-551)
Sequence (Q04206 whole entry, one chain of several): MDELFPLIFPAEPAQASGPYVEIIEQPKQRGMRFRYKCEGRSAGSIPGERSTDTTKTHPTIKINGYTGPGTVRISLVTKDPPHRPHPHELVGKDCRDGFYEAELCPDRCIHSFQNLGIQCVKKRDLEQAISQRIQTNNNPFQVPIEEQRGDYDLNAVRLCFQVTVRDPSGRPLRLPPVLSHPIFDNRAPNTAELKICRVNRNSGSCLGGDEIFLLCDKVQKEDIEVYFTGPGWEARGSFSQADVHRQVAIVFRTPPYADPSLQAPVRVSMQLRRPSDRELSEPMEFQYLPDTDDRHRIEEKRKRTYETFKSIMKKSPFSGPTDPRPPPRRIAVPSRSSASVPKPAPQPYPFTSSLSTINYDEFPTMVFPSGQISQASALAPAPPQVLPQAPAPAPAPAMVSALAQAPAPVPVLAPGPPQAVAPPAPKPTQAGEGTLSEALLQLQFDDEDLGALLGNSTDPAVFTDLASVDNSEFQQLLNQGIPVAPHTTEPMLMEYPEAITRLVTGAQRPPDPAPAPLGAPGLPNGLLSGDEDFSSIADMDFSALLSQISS
Experiment: competition
Settings: protein: extract; tags: native, Jurkat nuclear extract (TransAM NF-kB p65 kit, Active Motif)
reported-metric: binding signal

Below: 3 binders and their reported binding signal.
SEQ-18 (dsDNA) DNA 1: CTTGAGGGGATTTCCCC DNA 2: GGGGAAATCCCCTCAAG | 0.28 IC50 ratio to SEQ-I
SEQ-28 (dsDNA) DNA 1: AGGGGATTTCCCCCC DNA 2: GGGGGGAAATCCCCT | > 2.2 IC50 ratio to SEQ-I
SEQ-36 (dsDNA, PS (*): T*TG*A*GGGGATTT*C*CCC / antisense 5'-G*GGGAAA*T*C*CCCTCAA) DNA 1: TTGAGGGGATTTCCCC DNA 2: GGGGAAATCCCCTCAA | 0.012 IC50 ratio to SEQ-x

Quote binding signal reported for SEQ-38 (dsDNA, PS (*): TTG*A*GGGGATTT*C*CCC / antisense 5'-GGGGAAA*T*C*CCCTCAA) DNA 1: TTGAGGGGATTTCCCC DNA 2: GGGGAAATCCCCTCAA please. 0.011 IC50 ratio to SEQ-x

Quote binding signal reported for SEQ-29 (dsDNA) DNA 1: GAGGGGATTTCCCCCC DNA 2: GGGGGGAAATCCCCTC please. 2.17 IC50 ratio to SEQ-I

Quote binding signal reported for SEQ-31 (dsDNA) DNA 1: TTGAGGGGATTTCCCCCC DNA 2: GGGGGGAAATCCCCTCAA please. 0.84 IC50 ratio to SEQ-I

Quote binding signal reported for SEQ-35 (dsDNA, PS (*): G*A*GGGGATTT*C*CCC / antisense 3'-CTCCC*C*T*AAAG*G*GGG (so in the source)) DNA 1: GAGGGGATTTCCCC DNA 2: GGGGAAATCCCCTC please. 0.015 IC50 ratio to SEQ-x

Quote binding signal reported for SEQ-13 (dsDNA) DNA 1: GGGGATTTCCCC DNA 2: GGGGAAATCCCC please. > 2.87 IC50 ratio to SEQ-I

Quote binding signal reported for SEQ-32 (dsDNA) DNA 1: CTTGAGGGGATTTCCCCCC DNA 2: GGGGGGAAATCCCCTCAAG please. 0.76 IC50 ratio to SEQ-I

Quote binding signal reported for SEQ-27 (dsDNA) DNA 1: GGGGATTTCCCCCC DNA 2: GGGGGGAAATCCCC please. > 2.2 IC50 ratio to SEQ-I

Quote binding signal reported for SEQ-14 (dsDNA) DNA 1: AGGGGATTTCCCC DNA 2: GGGGAAATCCCCT please. 1.39 IC50 ratio to SEQ-I

Quote binding signal reported for SEQ-15 (dsDNA) DNA 1: GAGGGGATTTCCCC DNA 2: GGGGAAATCCCCTC please. 0.61 IC50 ratio to SEQ-I

Quote binding signal reported for SEQ-49 (dsDNA, PS (*): C*C*TTGAAGGGACTTTCCT*C*C / 3'-G*G*…*G*A*AAGGA*G*G) DNA 1: CCTTGAAGGGACTTTCCTCC DNA 2: GGAGGAAAGTCCCTTCAAGG please. 0.19 IC50 ratio to SEQ-x

Values were extracted from patent US20090143319.
